B1: mRNA-splicing (parent)
chain: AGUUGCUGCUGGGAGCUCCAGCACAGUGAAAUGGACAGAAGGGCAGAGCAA

- Variants of: B1
- experiment-description: exon inclusion enrichment index; higher = more inclusion; WT1 exon 5 minigene, HEK293
For each entry below, report its exon inclusion enrichment index value.
Give bare numbers.

Example variants with recorded exon inclusion enrichment index:
> print(dat)
                      variant.code  numeric.value
 1      G5C C6G U7C U10C G13C A14C           1.79
 2  G5C C6A U7C G8A U10A A40G G41A         0.0264
 3       G5C C6A U7C G8A U10A G38A         0.0452
 4      G5A U7C G8A U10C A39U A40U           1.02
 5                            C18A            1.5
 6           G5U G8U C9U G11C G12A         0.0135
 7                            G12C           1.58
 8           G5U G8U C9U C44G A45U         0.0543
 9      G5C C6G U7C U10C G26C U27C           4.24
10                         U4G G5U          0.105

Please give exon inclusion enrichment index for each item listed below.
1. C44U
2. C6A U7C C9A U10C G12C G13U
3. G5C C6A U7C G8A U10A G38A A39C

Result:
0.0165
0.77
0.107

Please give exon inclusion enrichment index for each item listed below.
1. U3A U4A G5C C6U G8C C9U U10C
2. G5A U7C G8A U10C A35U C36G

Result:
1. 1.8
2. 0.19
